Measured IC50, listed per entry.
target_system: SRC (Homo sapiens, UniProt P12931)
Sequence (P12931 whole entry): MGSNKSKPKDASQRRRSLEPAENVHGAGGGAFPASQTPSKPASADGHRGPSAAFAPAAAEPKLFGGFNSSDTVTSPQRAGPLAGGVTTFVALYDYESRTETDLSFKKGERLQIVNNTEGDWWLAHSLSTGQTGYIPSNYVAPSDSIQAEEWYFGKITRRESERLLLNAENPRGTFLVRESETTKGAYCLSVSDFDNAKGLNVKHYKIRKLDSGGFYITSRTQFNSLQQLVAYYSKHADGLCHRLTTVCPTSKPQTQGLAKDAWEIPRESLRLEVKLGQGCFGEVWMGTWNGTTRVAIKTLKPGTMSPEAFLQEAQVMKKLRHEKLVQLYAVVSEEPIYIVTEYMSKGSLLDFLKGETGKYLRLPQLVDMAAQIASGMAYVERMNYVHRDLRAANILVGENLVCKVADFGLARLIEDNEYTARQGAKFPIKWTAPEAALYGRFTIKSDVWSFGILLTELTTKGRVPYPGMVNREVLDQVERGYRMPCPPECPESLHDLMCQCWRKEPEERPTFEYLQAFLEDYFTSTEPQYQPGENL
test_summary: Inhibition of a panel of kinases, in vitro HotSpot kinase assay: SRC
Assay type: biochemical
details: Table 13, A compounds; 1 μM ATP

// worked examples, IC50 included
// IC50 value for Cc1nn(C)cc1Nc1nc(N2CCC[C@@H](NC(=O)c3ccc(C4CC4)cc3)[C@H]2C)cnc1C(N)=O [Example A-192] : > 10000 nM

// IC50 value for C[C@@H]1[C@H](n2ccc3cc(C4CC4)ccc3c2=O)CCCN1c1cnc(C(N)=O)c(Nc2ccc(N3CCN(C)CC3)cc2)n1 [Example A-140] : 10 to 100 nM

// IC50 value for C[C@@H]1[C@H](NC(=O)c2ccc(C3CC3)cc2F)CCCN1c1cnc(C(N)=O)c(Nc2ccc(N3CCN(C)C[C@@H]3C)cc2)n1 [Example A-176] : 100 to 1000 nM

// IC50 value for C[C@@H]1[C@H](NC(=O)c2ccc(C3CC3)cc2)CCCN1c1cnc(C(N)=O)c(Nc2cnn(C3CCN(C)CC3)c2)n1 [Example A-173] : 10 to 100 nM

// IC50 value for C[C@@H]1[C@H](NC(=O)c2ccc(C3CC3)cc2F)CCCN1c1cnc(C(N)=O)c(Nc2ccc(S(=O)(=O)N3CCN(C)CC3)cc2)n1 [Example A-156] : 100 to 1000 nM

// IC50 value for C[C@@H]1[C@H](NC(=O)c2ccc(C3CC3)cc2F)CCCN1c1cnc(C(N)=O)c(Nc2ccc(CN3CCN(C)CC3)cc2)n1 [Example A-106] : 100 to 1000 nM

Shift focus to the following entry.
// IC50 value for CC1(c2ccc(Nc3nc(N4CCC[C@@H](n5ccc6cc(C7CC7)ccc6c5=O)C4)cnc3C(N)=O)cc2)CCN(C2CCCC2)CC1 [Example A-141] : 10 to 100 nM
